The entries below are paired with their reported pIC50.
Target: recombinant human ACC1 (rhACC1) (Homo sapiens (Human), UniProt Q13085)
Experiment: Transcreener ADP detection FP assay, direct inhibition of rhACC1
Conditions: Geomean IC50, n ≥ 2 unless * then n = 1; 50 μM ATP, 30 μM acetyl-CoA
As a rule, pIC50 stands for the negative log10 of the concentration, concentration in M.

Here is how some compounds turned out for pIC50.
{"compound": "COc1cnc2c(C)cc(C(=O)N3CCC4(CC3)CC(=O)c3nc(C(C)(C)C)sc3C4)cc2c1 [Example 19]", "pIC50": 8.00}
{"compound": "Cc1cc(C(=O)N2CCC3(CC2)CC(=O)c2nc(C(C)(C)C)sc2C3)c2[nH]ncc2c1C [Example 35]", "pIC50": 8.59}
{"compound": "Cc1cc(C(=O)N2CCC3(CC2)CC(=O)c2nc(C(C)(C)C)sc2C3)cc2ccccc12 [Example 16]", "pIC50": 8.14}
{"compound": "CCOc1cc(C(=O)N2CCC3(CC2)CC(=O)c2nc(C(C)(C)C)sc2C3)cc2c(C)nn(C)c12 [Example 14]", "pIC50": 8.66}
{"compound": "COc1ccnc2c(C)cc(C(=O)N3CCC4(CC3)CC(=O)c3nc(C(C)(C)C)sc3C4)cc12 [Example 41]", "pIC50": 7.82}

query: Given CCc1n[nH]c2c(OC)cc(C(=O)N3CCC4(CC3)CC(=O)c3nc(C(C)(C)C)sc3C4)cc12 [Example 107] , state its recorded pIC50.
result: 7.91

query: And for COc1cc(C(=O)N2CCC3(CC2)CC(=O)c2nc(C(C)(C)C)sc2C3)cc2c1c(C)nn2C [Example 103] ?
result: 8.27

query: And for COc1cc(C(=O)N2CCC3(CC2)CC(=O)c2nc(C(C)(C)C)sc2C3)c2[nH]nc(C)c2c1 [Example 98] ?
result: 8.07

====

Target: recombinant human ACC1 (rhACC1) (Homo sapiens (Human))
Assay: Transcreener ADP detection FP assay, direct inhibition of rhACC1
Details: Geomean IC50, n ≥ 2 unless * then n = 1; 50 μM ATP, 30 μM acetyl-CoA
Description: The direct inhibition of ACC1 for the compounds of the present invention was determined using preparations of recombinant human ACC1 (rhACC1) (SEQ ID NO. 1) […]
measurement.kind: IC50 (nM)
Write the number in nM without appending the unit.

Here is how some compounds turned out for IC50.
{"compound.structure.string": "CNc1ccc2c(OC)cc(C(=O)N3CCC4(CC3)CC(=O)c3nc(C(C)(C)C)sc3C4)cc2n1", "measurement.kind": "IC50", "observed.measurement": 1.5}
{"compound.structure.string": "COc1cc(C(=O)N2CCC3(CC2)CC(=O)c2nc(C(C)(C)C)sc2C3)cc2c(C)nn(C)c12", "measurement.kind": "IC50", "observed.measurement": 5.3}

query: Given "COc1c(C)cc(C(=O)N2CCC3(CC2)CC(=O)c2nc(C(C)(C)C)sc2C3)c2[nH]ncc12" , state its recorded IC50.
result: 23.2

query: And for "COc1cc(C(=O)N2CCC3(CC2)CC(=O)c2nc(C(C)(C)C)sc2C3)cc2c(OC)nccc12" ?
result: 3.1
